Tested on: HFL1
measurementNotes: Cell-based assay, anti-proliferative activity (Cell Counting Kit-8, 72 hours)
conditionsUsed: Homo sapiens, HFL1, 72 h, read-out: IC50 (μM) HFL1
Structures can show the parent of a compound that is named as a salt.
IC50 values, listed per item
Give the value, in units of µM, as a plain number.

COc1cc(OC)c(-c2cn3ccc(N4CCN(CCO)CC4)cc3n2)cc1Cl [Example 43, dihydrochloride]	6.9
COc1cc(OC)c(-c2cn3ccc(N4CCN(P(=O)(OC)OC)CC4)nc3n2)cc1Cl	10
COc1cc(OC)c(-c2cn3ccc(NC(=O)[C@@H](N)Cc4c[nH]c5ccccc45)cc3n2)cc1Cl	3.6
CNc1ccn2cc(-c3cc(Cl)c(OC)cc3OC)nc2c1 [Example 6, hydrobromide]	1
COc1cc(OC)c(-c2cn3ccc(C4CCC(=O)CC4)cc3n2)cc1Cl	3.5

INPUT: # IC50 lookup, item `COc1cc(OC)c(-c2cn3ccc(N4CCCN(P(=O)(OC)OC)CC4)cc3n2)cc1Cl`
OUTPUT: 10

INPUT: I have this compound here, COc1cc(OC)c(-c2cn3cc(N4CCNCC4)ccc3n2)cc1Cl [Example 115, hydrochloride] , and I need its recorded IC50.
OUTPUT: 8.4

INPUT: Can you look up the measured IC50 of COc1cc(C)c(Cl)cc1-c1cn2ccc(N3CCNCC3)cc2n1 [Example 228, hydrochloride] for me?
OUTPUT: 1.6

INPUT: Which IC50 is reported for this compound? `COc1cc(OC)c(-c2cn3ccc(NC(=O)CN)cc3n2)cc1Cl`
OUTPUT: 22
